Molecular target: T1, PikAIII ACPdd (N-terminally His-tagged discrete C-terminal docking domain of PikAIII) (UniProt Q9ZGI3 1479-1562)
T1 sequence (looked up): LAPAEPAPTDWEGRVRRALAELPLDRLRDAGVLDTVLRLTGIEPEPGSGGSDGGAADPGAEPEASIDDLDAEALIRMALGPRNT
Assay: SPR
readout.type: Kd (µM)
Kindly provide the numeric value in µM only, without the unit symbol.

// Kd lookup, binder = MTSSNEQLVDALRASLKENEELRKESRRRADRRQEPM (domain or fragment, UniProt Q9ZGI2 1-37, looked up) [PikAIV KSdd (discrete N-terminal docking domain of PikAIV, tagless)] , result: 73
